- EXPERIMENT_NOTES: Storage of aqueous solution or slurry for 60 days: HPLC analysis of components and appearance
- Type: physicochemical
- CONDITIONS_USED: keeping temperature 50° C.
READOUT_LABEL: Content of the compound of the formula [I] in aqueous solution after kept for 60 days (wt. %)

COMPOUND: O=C([O-])C[C@H](NCCN[C@@H](CC(=O)[O-])C(=O)[O-])C(=O)[O-].[Fe+3].[NH4+] [Example 125]
VALUE: 36.5
//
COMPOUND: O=C([O-])CC(NCCCNC(CC(=O)[O-])C(=O)[O-])C(=O)[O-].[Na+].[Na+].[Na+].[Na+] (stereo not drawn) [compound 45]
VALUE: 33.3
//
COMPOUND: O=C([O-])C[C@@H](C(=O)[O-])N(CC(=O)[O-])CC(=O)[O-].[Na+].[Na+].[Na+].[Na+] [Example 86]
VALUE: 36.4
//
COMPOUND: O=C([O-])CC(NCCCNC(CC(=O)[O-])C(=O)[O-])C(=O)[O-].[Cu+2].[Na+].[Na+] (stereo not drawn) [Example 126]
VALUE: 36.4
//
COMPOUND: O=C([O-])CN[C@@H](CC(=O)[O-])C(=O)[O-].[Na+].[Na+].[Na+] [compound 33]
VALUE: 30.5
//
COMPOUND: O=C([O-])C[C@H](NCCN[C@@H](CC(=O)[O-])C(=O)[O-])C(=O)[O-].[Na+].[Na+].[Na+].[Na+] [Example 113]
VALUE: 35.6
//
COMPOUND: O=C([O-])CC(NCCNC(CC(=O)[O-])C(=O)[O-])C(=O)[O-].[Na+].[Na+].[Na+].[Na+] (stereo not drawn) [Example 112]
VALUE: 36.4
//
COMPOUND: O=C([O-])C[C@H](NCCN[C@@H](CC(=O)[O-])C(=O)[O-])C(=O)[O-].[Na+].[Na+].[Na+].[Na+] [compound 44]
VALUE: 34.4
//
COMPOUND: CN(CC(=O)[O-])CC(=O)[O-].[Na+].[Na+] [Example 101, disodium N-methyliminodiacetate]
VALUE: 36.6
//
COMPOUND: O=C([O-])CN[C@@H](CC(=O)[O-])C(=O)[O-].[Na+].[Na+].[Na+] [compound 29]
VALUE: 31.1
//
COMPOUND: O=C([O-])CN(CC(=O)[O-])c1ccccc1C(=O)[O-].[Na+].[Na+].[Na+] [compound 39]
VALUE: 31.8
//
COMPOUND: O=C([O-])CC(NCCNC(CC(=O)[O-])C(=O)[O-])C(=O)[O-].[Cu+2].[Na+].[Na+] (stereo not drawn) [Example 124]
VALUE: 36.3
//
COMPOUND: O=C([O-])CC(NCCNC(CC(=O)[O-])C(=O)[O-])C(=O)[O-].[Cu+2].[Na+].[Na+] (stereo not drawn) [compound 48]
VALUE: 31.4
//
COMPOUND: O=C([O-])CN(CCS(=O)(=O)[O-])CC(=O)[O-].[Na+].[Na+].[Na+] [compound 37]
VALUE: 30.4
//
COMPOUND: O=C([O-])CCN[C@@H](CC(=O)[O-])C(=O)[O-].[Na+].[Na+].[Na+] [compound 31]
VALUE: 33.2
//
COMPOUND: O=C([O-])C[C@@H](C(=O)[O-])N(CC(=O)[O-])CC(=O)[O-].[Na+].[Na+].[Na+].[Na+] [compound 30]
VALUE: 31.8
//
COMPOUND: O=C([O-])CN(CCS(=O)(=O)[O-])CC(=O)[O-].[Na+].[Na+].[Na+] [Example 100]
VALUE: 34.7
//
COMPOUND: O=C([O-])CC(NCCNC(CC(=O)[O-])C(=O)[O-])C(=O)[O-].[Na+].[Na+].[Na+].[Na+] (stereo not drawn) [compound 43]
VALUE: 35.7
//
COMPOUND: O=C([O-])CCN[C@@H](CC(=O)[O-])C(=O)[O-].[Na+].[Na+].[Na+] [Example 87]
VALUE: 37.8
//
COMPOUND: O=C([O-])C[C@H](NCCN[C@@H](CC(=O)[O-])C(=O)[O-])C(=O)[O-].[Fe+3].[NH4+] [compound 49]
VALUE: 29.9
//
COMPOUND: C[C@@H](C(=O)[O-])N(CC(=O)[O-])CC(=O)[O-].[Na+].[Na+].[Na+] [compound 32]
VALUE: 31.8
//
COMPOUND: O=C([O-])CC(NCCCNC(CC(=O)[O-])C(=O)[O-])C(=O)[O-].[Cu+2].[Na+].[Na+] (stereo not drawn) [compound 50]
VALUE: 32.2
//
COMPOUND: O=C([O-])CN(CC(=O)[O-])c1ccccc1C(=O)[O-].[Na+].[Na+].[Na+] [Example 102]
VALUE: 37.8
//
COMPOUND: C[C@@H](C(=O)[O-])N(CC(=O)[O-])CC(=O)[O-].[Na+].[Na+].[Na+] [Example 88]
VALUE: 36.5
